Assay: soluble on expression in E. coli; label from the status in PepcDB or PDB records
endpoint: soluble on expression in E. coli

Query: Report soluble on expression in E. coli, nothing else, for this sequence: MGSSHHHHHHSSGLVPRGSHMNIPRFGVKTDQEELLAQELENLNKWGLNIFCVSDYAGGRSLTCIMYMIFQERDLLKKFRIPVDTMVTYMLTLEDHYHADVAYHNSLHAADVLQSTHVLLATPALDAVFTDLEILAALFAAAIHDVDHPGVSNQFLINTNSELALMYNDESVLENHHLAVGFKLLQEDNCDIFQNLSKRQRQSLRKMVIDMVLATDMSKHMTLLADLKTMVETKKVTSSGVLLLDNYSDRIQVLRNMVHCADLSNPTKPLELYRQWTDRIMAEFFQQGDRERERGMEISPMCDKHTASVEKSQVGFIDYIVHPLWETWADLVHPDAQEILDTLEDNRDWYYSAI
Reply: soluble

Query: Report soluble on expression in E. coli, nothing else, for this sequence: MSLHASAIESIETIIVDLPTIRPHKLAMHTMQNQTLVLIRLRCADGIEGLGESTTIGGLAYGNESPDSIKTNIDRFVAPLLIGQDASNINAAMLRLEQSIRGNTFAKSGIESALLDAQGKRLGLPVSELLGGRVRDALPVAWTLASGDTAKDIAEAQKMLDLRRHRIFKLKIGAGEVDRDLAHVIAIKKALGDSASVRVDVNQAWDEAVALRACRILGGNGIDLIEQPISRNNRAGMVRLNASSPAPIMADESIECVEDAFNLAREGAASVFALKIAKNGGPRATLRTAAIAEAAGIGLYGGTMLEGGIGTLASAHAFLTLNKLSWDTELFGPLLLTEDILAEPPVYRDFHLHVSKAPGLGLSLDEERLAFFRRDKTTPVLHHTEGHHHHHH
Reply: soluble

---

Test: soluble on expression in E. coli; label from the status in PepcDB or PDB records
endpoint: soluble on expression in E. coli

Query: Report soluble on expression in E. coli, nothing else, for this sequence: MCGIIGFMSRTGRLISGDRIATALNCLKERGNGEGSGYVGYGIYPDYKDDYAIHVFLDATKDYDRIRHEVEEVLVKYGYILKDEEIPTEEGIIKQEQVSWRFFYRFDEKYKTVEEDLMVDIVMDINAKIDGAFVFSSGKNMGVFKAAAWPLEVAEYFKIDQYKGFQWLSHARYPTNTKGWWGGAHPFNLLGWSVVHNGEITSYGANKRYVESFGYKCKLLTDTEVVAYLFDLLIRKHKIPVEYAMSALAPRFWDEIEIMSEEDKKIHEAIRMTYGGATMNGPFGIVVGTQEGMVFMNGEVEEGNTMVGLTDRIKLRPLVAAEKDDLLFVSSEESAIRKICPELDRVWMPDAGRMVIAKLEKKI
Reply: not soluble

Query: Report soluble on expression in E. coli, nothing else, for this sequence: MGSDKIHHHHHHMRRRHVGVGAELTAFRILAAISCERLFWETGSRNQAVKTRAESANREISMIRTAMIAATALAASLAASAPAFAADVVGLWATPGNGGQVEISRCGNSLCGKLVTSDHIKTNPGLKDIKNKDESQRSRTLKNLQMLYDFSGGPTKWTGGKVYNPEDGGVYAGTIELVSTTELKLKGCVVAPLCKTQKWTRIR
Reply: not soluble

Query: Report soluble on expression in E. coli, nothing else, for this sequence: MKPYLMGNNPCGADATLFAFAASLLSPVFETPIRAAAESHPNLIAYMARMRTRYYPDFQGSGVFAPALEHHHHHH
Reply: not soluble
